Target: FLT3 (Homo sapiens, UniProt P36888)
Construct: made in house
Sequence (P36888 27-993): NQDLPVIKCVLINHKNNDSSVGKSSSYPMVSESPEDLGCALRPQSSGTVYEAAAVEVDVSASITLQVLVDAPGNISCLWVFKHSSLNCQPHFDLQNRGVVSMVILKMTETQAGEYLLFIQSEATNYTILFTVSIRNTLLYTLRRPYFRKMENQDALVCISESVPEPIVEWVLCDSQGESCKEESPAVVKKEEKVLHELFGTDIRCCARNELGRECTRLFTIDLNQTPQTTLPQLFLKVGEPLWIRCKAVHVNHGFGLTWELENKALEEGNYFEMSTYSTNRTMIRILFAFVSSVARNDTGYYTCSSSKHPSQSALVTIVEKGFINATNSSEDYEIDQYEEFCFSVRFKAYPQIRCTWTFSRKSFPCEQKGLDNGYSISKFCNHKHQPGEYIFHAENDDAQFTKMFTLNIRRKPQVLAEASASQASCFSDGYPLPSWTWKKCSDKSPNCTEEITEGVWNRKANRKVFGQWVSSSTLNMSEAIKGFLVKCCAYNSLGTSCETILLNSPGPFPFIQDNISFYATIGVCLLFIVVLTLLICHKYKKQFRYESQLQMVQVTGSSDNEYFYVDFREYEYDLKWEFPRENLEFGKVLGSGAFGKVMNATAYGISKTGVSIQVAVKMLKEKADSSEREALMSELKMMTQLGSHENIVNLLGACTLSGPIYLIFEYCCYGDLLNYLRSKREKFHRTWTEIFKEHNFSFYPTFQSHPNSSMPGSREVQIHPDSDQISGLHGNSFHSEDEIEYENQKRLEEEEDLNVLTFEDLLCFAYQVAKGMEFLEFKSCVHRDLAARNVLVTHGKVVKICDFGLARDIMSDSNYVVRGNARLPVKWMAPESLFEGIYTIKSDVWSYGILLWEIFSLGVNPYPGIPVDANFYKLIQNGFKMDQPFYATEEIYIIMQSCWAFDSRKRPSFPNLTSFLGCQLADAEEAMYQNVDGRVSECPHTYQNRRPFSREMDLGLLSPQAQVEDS
Experiment: Competition binding assay, FLT3 Kd
Settings: competition binding
Structures can show the parent of a compound that is named as a salt.
measured_endpoint: Kd

Look over these answered cases.
# compound, assayed_target, Kd
records = [
    ("CN(C)CC(=O)c1cnc2c(c1)ncn2Cc1ccc2nc(N[C@@H]3CCCC[C@H]3O)sc2c1 [Example 116, acetate salt]", "FLT3 (Homo sapiens, UniProt P36888)", "200 to 1000 nM"),
    ("O[C@@H]1CCCC[C@H]1Nc1nc2ccc(Cn3cnc4cc(C5=CCCCC5)ccc43)cc2s1", "FLT3 (Homo sapiens, UniProt P36888)", "200 to 1000 nM"),
    ("O[C@@H]1CCCC[C@H]1Nc1nc2cc(F)c(Cn3cnc4cccnc43)cc2s1", "FLT3 (Homo sapiens, UniProt P36888)", "1000 to 5000 nM"),
    ("C#Cc1ccc2ncn(Cc3ccc4nc(N[C@@H]5CCCC[C@H]5O)sc4c3)c2c1", "FLT3 (Homo sapiens, UniProt P36888)", "200 to 1000 nM"),
    ("O[C@@H]1[C@H](O)CCC[C@H]1Nc1nc2ccc(Cn3cnc4cc(OC5COC5)ccc43)cc2s1", "FLT3 (Homo sapiens, UniProt P36888)", "200 to 1000 nM"),
    ("Fc1cnc2c(c1)ncn2Cc1ccc2nc(N[C@@H]3CCCC[C@@H]3Cl)sc2c1", "FLT3 (Homo sapiens, UniProt P36888)", "1000 to 5000 nM"),
    ("O[C@@H]1CCCC[C@H]1Nc1nc2ccc(Cn3cnc4cc(C5=CCOCC5)cc(F)c43)cc2s1", "FLT3 (Homo sapiens, UniProt P36888)", "≤ 200 nM"),
]

Proceed to the following item.
Asked: Can you share its Kd? I mean this compound: "O[C@@H]1CCCC[C@H]1Nc1nc2ccc(Cc3cnc4cccnn34)cc2o1"
Given back: ≤ 200 nM
